biological target: Pantothenate synthetase (Mycobacterium tuberculosis (strain ATCC 25618 / H37Rv)); assay: Coupled enzyme confirmation of inhibitors against recombinant Mtb PanC (AID 375); details: coupled enzyme assay; at 10 µM, hits give high values;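 also: 0% = full reaction with vehicle and 100% = no enzyme background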
Reported inhibition by item:
Please respond with the number in % and leave the unit unwritten.

# annotated cases, reported inhibition shown
# Compound, Readout Number
rows = [
    ("CCCCC(CC)Cn1c2nc3ccccc3nc2c2c(=N)oc(C)nc21 (stereo unspecified)", 7),
    ("C=CCn1c(-c2ccc(OC)cc2)nc2ccccc21", 0),
]

I am curious: what inhibition value has been reported for "O=C(O)c1ccc(-n2nnnc2Oc2ccccc2C(=O)N2CCOCC2)cc1" ?
4

Which inhibition is listed for "N#Cc1ccccc1NC(=O)CSc1nnc(-c2ccccc2)n1-c1ccccc1" ?
0

Could you tell me which inhibition is on file for "Cc1cc(C)n(C2=NS(=O)(=O)c3ccccc32)n1" ?
1

Form field: reported inhibition of "Cc1nn(Cc2ccccc2Cl)c(Cl)c1C(=O)OCC(=O)NCc1ccco1"
0

----------
molecular target: Pantothenate synthetase (Mycobacterium tuberculosis (strain ATCC 25618 / H37Rv)) (UniProt P9WIL5); assay: Coupled enzyme confirmation of inhibitors against recombinant Mtb PanC (AID 375); details: coupled enzyme assay; at 10 µM, hits give high values;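 also: 0% = full reaction with vehicle and 100% = no enzyme background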
Sequence (P9WIL5 whole entry, looked up): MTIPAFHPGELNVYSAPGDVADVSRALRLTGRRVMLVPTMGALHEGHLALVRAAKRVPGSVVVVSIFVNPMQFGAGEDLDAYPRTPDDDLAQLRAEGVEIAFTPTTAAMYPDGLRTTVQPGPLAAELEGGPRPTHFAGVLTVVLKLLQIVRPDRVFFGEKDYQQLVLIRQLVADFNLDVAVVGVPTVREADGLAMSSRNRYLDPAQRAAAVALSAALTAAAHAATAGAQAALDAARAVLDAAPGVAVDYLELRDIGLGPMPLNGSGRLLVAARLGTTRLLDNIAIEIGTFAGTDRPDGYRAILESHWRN
Measured Attribute: inhibition (%)
Supply the numeric figure in %, leaving out any unit text.

Name the recorded inhibition for COC(=O)C(C)Oc1ccc2c3c(c(=O)oc2c1)CCCCC3 (configuration not stated) .
2

Consider the compound shown here: "CCOC(=O)Cc1csc(NC(=O)c2cccc(OC)c2)n1" What is its recorded inhibition?
0

Requested read-out: inhibition. Entry: COP(=O)(OC)C(O)C(Cl)(Cl)Cl (configuration not stated)
0

Fill in: inhibition of "CCCOc1nc(N)c(C#N)c(-c2ccccc2F)c1C#N" is ___
4

# inhibition lookup, item Cc1cc2c(c(=O)o1)C(Cc1ccccc1)C(C#N)=C(N)O2 (configuration not stated)
1

----------
assay: RAM signaling pathway blockade in yeast – S. cerevisiae, Pdr1DBD-CYC8 efflux-inhibited sensitized strain, primary screen (AID 1298);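 also: 0% = DMSO untreated cells without growth and 100% = 10 µM 1-NA-PP1 full growth; higher means more yeast growth rescued from 5-FOA killing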; details: S. cerevisiae cbk1-as DSE1-URA3 strain, 5-FOA growth OD615, 2 d; at 50 µM; hits give high values
compounds and their reported RAM network inhibition
Report the figure in % without appending any unit label.

Entry CCOc1ccccc1C1SCC(=O)Nc2c1c(=O)[nH]n2C(CC)CC (stereo unspecified) has what RAM network inhibition?
0.37

// query RAM network inhibition value for entry "CCCCCCOc1ccc(CN2CCN(CCO)CC2)cc1"
-1.21

Look up RAM network inhibition: "CC1(C)CN=C(Nc2ccc(F)c(F)c2)S1"
6.13

Entry under review: "CCOC(=O)c1c(C)n(Cc2ccco2)c2ccc(OC)cc12" . Reported RAM network inhibition?
3.6

Which RAM network inhibition reading was recorded for the compound "CC(=O)Nc1ccc(OC(=O)c2ccccc2N)cc1" ?
0.27

Record request: RAM network inhibition value, item "CC1(C)C(c2ccccc2)=NC(c2cccnc2)=[N+]1[O-]"
-0.36

----------
target: Pantothenate synthetase (Mycobacterium tuberculosis (strain ATCC 25618 / H37Rv)); test: Coupled enzyme confirmation of inhibitors against recombinant Mtb PanC (AID 375); conditions: coupled enzyme assay; at 10 µM, hits give high values;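 also: 0% = full reaction with vehicle and 100% = no enzyme background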
Catalogue of inhibition values
Report as a plain number; the unit % is understood.

# Molecule, inhibition (%)
records = [
    ("CCC(C)(C)n1nnnc1C(c1ccncc1)N1CCN(c2cccc(OC)c2)CC1 (configuration not stated)", 0),
    ("CCc1nnc(NC(=O)c2cc3ccccc3oc2=O)s1", 2),
    ("Cc1nc2c(=O)oc3ccccc3c2n1-c1ccccc1", 0),
    ("CCC1CCCCN1C(=O)CSc1nnc(-c2ccco2)o1 (configuration not stated)", 1),
    ("N#CCSc1nc(-c2ccccc2)cs1", 0),
]

Give its inhibition value. Item: "Cc1cccc(-n2c(SCc3cc(=O)n4ccsc4n3)nc3ccccc32)c1"
0

Could you tell me which inhibition is on file for "Cc1oc2c(c1C(=O)NCc1ccccc1)CCCC2" ?
0

inhibition for "COc1ccc2cc(CN(CCO)C(=O)c3ccccc3F)c(=O)[nH]c2c1" ?
5

Which inhibition is listed for "C[C@H](CCC(=O)O)[C@H]1CC[C@H]2[C@@H]3C(=O)C[C@@H]4CC(=O)CC[C@]4(C)[C@H]3CC(=O)[C@]12C" ?
2

What value of inhibition has been reported for the following molecule? O=C1NC2(Nc3ccccc31)C(=O)Nc1ccccc12 (configuration not stated)
0
